Test system: McpC ligand-binding domain (Salmonella Typhimurium SL1344)
Assay: protein melting temperature (Tm) in presence of compound (degrees C); higher = more thermal stabilisation (possible ligand binding)
Conditions: Biolog plate: PM05; compound stock concentration: 10-20 mM, 2 uL in 10 uL reaction
OUTCOME_MEASURE: protein melting temperature

MOLECULE | TESTED_TARGET | protein melting temperature
Nc1ccn([C@H]2C[C@H](O)[C@@H](CO)O2)c(=O)n1 [2`-Deoxycytidine] | McpC ligand-binding domain (Salmonella Typhimurium SL1344) | 44.3
NC(=O)c1cccnc1 [Nicotinamide] | McpC ligand-binding domain (Salmonella Typhimurium SL1344) | 43.7
O=c1[nH]cnc2nc[nH]c12 [Hypoxanthine] | McpC ligand-binding domain (Salmonella Typhimurium SL1344) | 44
CC(C)(CO)[C@@H](O)C(=O)NCCC(=O)O [D-Pantothenic acid] | McpC ligand-binding domain (Salmonella Typhimurium SL1344) | 43.7
OC[C@H]1O[C@H](O)[C@H](O)[C@@H](O)[C@@H]1O [a-D-Glucose] | McpC ligand-binding domain (Salmonella Typhimurium SL1344) | 42.9
Nc1nc(=O)c2nc(CNc3ccc(C(=O)N[C@@H](CCC(=O)O)C(=O)O)cc3)cnc2[nH]1 [Folic acid] | McpC ligand-binding domain (Salmonella Typhimurium SL1344) | 43.8
N[C@@H](CCC(=O)O)C(=O)O [L-Glutamic acid] | McpC ligand-binding domain (Salmonella Typhimurium SL1344) | 44.2
N[C@@H](Cc1c[nH]cn1)C(=O)O [L-Histidine] | McpC ligand-binding domain (Salmonella Typhimurium SL1344) | 44.6
O=c1[nH]cnc2c1ncn2[C@H]1C[C@H](O)[C@@H](CO)O1 [2`-Deoxyinosine] | McpC ligand-binding domain (Salmonella Typhimurium SL1344) | 43.9
N=C(N)NCCC[C@H](N)C(=O)O [L-Arginine] | McpC ligand-binding domain (Salmonella Typhimurium SL1344) | 44.6

====

System: McpC ligand-binding domain (Salmonella Typhimurium SL1344)
Assay: protein melting temperature (Tm) in presence of compound (degrees C); higher = more thermal stabilisation (possible ligand binding)
Conditions: Biolog plate: PM02A; compound stock concentration: 10-20 mM, 2 uL in 10 uL reaction
OUTCOME_MEASURE: protein melting temperature

COMPOUND | protein melting temperature
OC[C@H]1O[C@H](OC[C@H]2O[C@H](O[C@]3(CO)O[C@H](CO)[C@@H](O)[C@@H]3O)[C@H](O)[C@@H](O)[C@@H]2O)[C@H](O)[C@@H](O)[C@H]1O [D-Raffinose] | 44.4
O=C(CO)[C@@H](O)[C@H](O)[C@H](O)CO[C@H]1O[C@H](CO)[C@@H](O)[C@H](O)[C@H]1O [Palatinose] | 44
O=C(O)CCCO [g-Hydroxybutyric acid] | 44.2
CO[C@@H]1OC[C@@H](O)[C@H](O)[C@H]1O [b-Methyl-D-Xyloside] | 44.2
OC[C@@H](O)[C@@H](O)CO [i-Erythritol] | 43.7
CSCC[C@H](N)C(=O)O [L-Methionine] | 43.5
O=C(O)c1ccccc1O [2-Hydroxybenzoic acid] | 45.4
C/C=C/C=C/C(=O)O [Sorbic acid] | 44
O=C(CO)[C@@H](O[C@H]1O[C@H](CO)[C@@H](O)[C@H](O)[C@H]1O)[C@H](O)[C@H](O)CO [Turanose] | 44.1
CCCCCCCCCC(=O)O [Capric acid] | 42.4
OC[C@H]1O[C@@H]2O[C@H]3[C@H](O)[C@@H](O)[C@@H](O[C@H]4[C@H](O)[C@@H](O)[C@@H](O[C@H]5[C@H](O)[C@@H](O)[C@@H](O[C@H]6[C@H](O)[C@@H](O)[C@@H](O[C@H]7[C@H](O)[C@@H](O)[C@@H](O[C@H]8[C@H](O)[C@@H](O)[C@@H](O[C@H]9[C@H](O)[C@@H](O)[C@@H](O[C@H]1[C@H](O)[C@H]2O)O[C@@H]9CO)O[C@@H]8CO)O[C@@H]7CO)O[C@@H]6CO)O[C@@H]5CO)O[C@@H]4CO)O[C@@H]3CO [g-Cyclodextrin] | 44.7
CC(O)C(C)O (configuration not stated) [2,3-Butanediol] | 44.2
COC(=O)[C@@H](C)O [D-Lactic acid Methyl Ester] | 44.4
OC[C@@H]1OC(O)[C@@H](O)[C@H](O)[C@H]1O (stereo partly drawn) [L-Glucose] | 44.4
O=C(O)[C@]1(O)C[C@@H](O)[C@@H](O)[C@H](O)C1 [Quinic acid] | 44.2
CC(C)C[C@H](N)C(=O)O [L-Leucine] | 44.3
CC(=O)C(C)O (configuration not stated) [3-Hydroxy-2-butanone] | 43.5

====

System: McpC ligand-binding domain (Salmonella Typhimurium SL1344)
Experiment: protein melting temperature (Tm) in presence of compound (degrees C); higher = more thermal stabilisation (possible ligand binding)
Conditions: Biolog plate: PM04A; compound stock concentration: 10-20 mM, 2 uL in 10 uL reaction
OUTCOME_MEASURE: protein melting temperature

COMPOUND | RECORDED_MEASUREMENT
O=c1ccn([C@@H]2O[C@H](CO)[C@@H](O)[C@H]2OP(=O)(O)O)c(=O)[nH]1 [Uridine 2`-Monophosphate] | 43.8
Cc1cn([C@H]2C[C@H](OP(=O)(O)O)[C@@H](CO)O2)c(=O)[nH]c1=O [Thymidine 3`-Monophosphate] | 43.6
CCOP(=O)(OCC)OCC [Triethyl Phosphate] | 44.9
C[C@H](CCC(=O)NCCS(=O)(=O)O)[C@H]1CC[C@H]2[C@@H]3[C@H](O)C[C@@H]4C[C@H](O)CC[C@]4(C)[C@H]3C[C@H](O)[C@]12C | 44.2
CCSCCC(N)C(=O)O (racemic) | 43.9
CSCCC(NC(C)=O)C(=O)O (racemic) | 43.7
C=C(OP(=O)(O)O)C(=O)O [Phosphoenol Pyruvate] | 43.9
NCCP(=O)(O)O | 43.6
Nc1ncnc2c1ncn2[C@@H]1O[C@@H]2COP(=O)(O)O[C@H]2[C@H]1O [Adenosine 3`,5`-Cyclic Monophosphate] | 43.9
OC[C@H]1O[C@@H](S)[C@H](O)[C@@H](O)[C@@H]1O | 44.5
CS(=O)(=O)CC[C@H](N)C(=O)O | 43.9
Nc1ncnc2c1ncn2[C@@H]1O[C@H](COP(=O)(O)O)[C@@H](O)[C@H]1O [Adenosine 5`-Monophosphate] | 43.9
OP(O)(=S)S [Dithiophosphate] | 43.6
N[C@@H](CS(=O)O)C(=O)O | 43
NCCS | 42.8
O=P1(O)OP(=O)(O)OP(=O)(O)O1 [Trimetaphosphate] | 44.7
Nc1ccc(S(=O)(=O)O)cc1 | 44.5
CC(=O)N[C@@H](CS)C(=O)O | 43.7
N[C@H](Cc1ccc(OP(=O)(O)O)cc1)C(=O)O | 43.7
O=C[C@H](O)[C@@H](O)[C@H](O)[C@H](O)COP(=O)(O)O [D-Glucose-6-Phosphate] | 43.8
N[C@@H](COP(=O)(O)O)C(=O)O | 43.9
CSCC[C@H](NC(=O)CN)C(=O)O | 43.8
CN(CC(=O)O)C(=N)NP(=O)(O)O | 44.3
NCCS(=O)O | 44.5
Nc1ccn([C@@H]2O[C@H](CO)[C@@H](OP(=O)(O)O)[C@H]2O)c(=O)n1 [Cytidine 3`-Monophosphate] | 45.4
OP(O)(O)=S [Thiophosphate] | 43.9
Nc1nc2c(ncn2[C@@H]2O[C@H](CO)[C@@H](O)[C@H]2OP(=O)(O)O)c(=O)[nH]1 [Guanosine 2`-Monophosphate] | 44
N[C@H](COP(=O)(O)O)C(=O)O | 43.9
N[C@@H]1[C@@H](O)[C@H](O)[C@@H](COP(=O)(O)O)O[C@@H]1O [D-Glucosamine-6-Phosphate] | 44.1
N[C@@H](Cc1ccc(OP(=O)(O)O)cc1)C(=O)O | 43.7
O=C(O)[C@H](O)[C@@H](O)[C@H](O)[C@H](O)COP(=O)(O)O | 43.6
Nc1ncnc2c1ncn2[C@@H]1O[C@H](CO)[C@@H](O)[C@H]1OP(=O)(O)O [Adenosine 2`-Monophosphate] | 43.8
CS(=O)(=O)O | 44.4
CCCCS(=O)(=O)O | 44.4
CSC[C@H](N)C(=O)O | 43.7
O=C(O)C(O)COP(=O)(O)O (configuration not stated) | 44.9
N[C@@H](CCC(=O)N[C@@H](CS)C(=O)NCC(=O)O)C(=O)O | 43.7

====

System: McpC ligand-binding domain (Salmonella Typhimurium SL1344)
Test: protein melting temperature (Tm) in presence of compound (degrees C); higher = more thermal stabilisation (possible ligand binding)
Conditions: Biolog plate: PM03B; compound stock concentration: 10-20 mM, 2 uL in 10 uL reaction
OUTCOME_MEASURE: protein melting temperature

COMPOUND | protein melting temperature
C[C@@H](N)C(=O)O | 44.9
Nc1cc[nH]c(=O)n1 | 45.2
Nc1nc2c(ncn2[C@@H]2O[C@H](CO)[C@@H](O)[C@H]2O)c(=O)[nH]1 | 45.5
NCCCC[C@@H](N)C(=O)O | 44.3
NCCc1ccccc1 | 44.6
O=c1[nH]cnc2c1ncn2[C@@H]1O[C@H](CO)[C@@H](O)[C@H]1O | 44.6
CSCC[C@H](N)C(=O)O | 44.7
C[C@H](N)C(=O)N[C@@H](CCC(N)=O)C(=O)O | 45.1
Nc1ccn([C@@H]2O[C@H](CO)[C@@H](O)[C@H]2O)c(=O)n1 | 44.7
NCC(=O)N[C@@H](CCC(=O)O)C(=O)O | 45.1
NC=O [Formamide] | 45.6
